Attribution: the supplement of paper PMC10567573

B1: ZER1 (parent)
chain: PILRLLPQGISPVSQHWATWALYN

Variants of: B1
Assay: protein stability index of a GFP-peptide fusion (GPS, HEK-293T) (PSI 1-6); higher = more stable;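 also: lentivirally expressed fusions sorted by FACS into six bins by GFP to DsRed ratio, PSI derived from sequencing read proportions per bin multiplied by bin number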
Conditions: c terminus: a fixed tail appended
Label rule, in plain words: protein stability index of 3 and up is Met, under 3 is Not met.

{"record.sequence": "PILRLLPQGISPNSQHWATWALYN [V13N]", "group": "Not met"}
{"record.sequence": "AILRLLPQGISPVSQHWATWALYN [P1A]", "group": "Met"}
{"record.sequence": "KILRLLPQGISPVSQHWATWALYN [P1K]", "group": "Not met"}
{"record.sequence": "PILRLLPQGISPVSQHWKTWALYN [A18K]", "group": "Not met"}
{"record.sequence": "PILRLLPQGHSPVSQHWATWALYN [I10H]", "group": "Not met"}
{"record.sequence": "PILRLLPQGISPVSQHWATWSLYN [A21S]", "group": "Not met"}
{"record.sequence": "PILSLLPQGISPVSQHWATWALYN [R4S]", "group": "Not met"}
{"record.sequence": "PILRLLPQGISFVSQHWATWALYN [P12F]", "group": "Met"}

Q) Kindly determine if protein stability index recorded for PILRLDPQGISPVSQHWATWALYN [L6D] is above or exactly 3.
A) Not met

Q) Could you tell me if the measured protein stability index of PILRTLPQGISPVSQHWATWALYN [L5T] reaches 3 or more?
A) Not met

Q) Decide: protein stability index of PELRLLPQGISPVSQHWATWALYN [I2E] >= 3?
A) Not met

Q) # check: protein stability index of PILRLLPQGISPVSQHWLTWALYN [A18L] is greater than or equal to 3
A) Not met

Q) // inclusive: protein stability index at least 3? input: PILRLLPQGISPVSQHCATWALYN [W17C]
A) Not met

Q) Please indicate if the recorded protein stability index for PILRLLPQNISPVSQHWATWALYN [G9N] meets or exceeds 3.
A) Not met

Q) Given PILRLLPQGISPVSQHWMTWALYN [A18M] , state whether its protein stability index is at least 3.
A) Not met

Q) protein stability index >= 3 for PILRLLPQGISPVSQHWATWALYW [N24W] ?
A) Not met
